# measurement target: T1, HUMAN B7H3 (Biacore analyte) (human, UniProt Q5ZPR3 29-461, limits assumed)
# T1 construct: also called hB7H3
# T1 sequence (looked up): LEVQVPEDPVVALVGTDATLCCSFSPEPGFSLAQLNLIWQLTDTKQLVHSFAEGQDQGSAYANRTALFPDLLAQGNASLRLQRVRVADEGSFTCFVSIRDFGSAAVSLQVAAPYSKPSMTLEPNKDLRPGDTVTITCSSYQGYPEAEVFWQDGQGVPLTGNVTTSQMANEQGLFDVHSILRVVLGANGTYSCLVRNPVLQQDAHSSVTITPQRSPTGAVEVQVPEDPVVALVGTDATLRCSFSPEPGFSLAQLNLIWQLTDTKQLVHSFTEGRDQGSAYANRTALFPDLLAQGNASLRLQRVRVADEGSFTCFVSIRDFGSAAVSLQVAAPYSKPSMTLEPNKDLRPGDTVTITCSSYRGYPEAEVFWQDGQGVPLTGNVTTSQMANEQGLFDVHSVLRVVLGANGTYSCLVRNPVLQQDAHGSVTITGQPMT
# experiment description: SPR, Biacore 8K, antibody captured, B7H3 as analyte, 1:1 binding
outcome measure: koff (s⁻¹)
Number in s⁻¹, nothing else.

// field: koff; key: 8-C3-E3-F3 (human IgG1 chimeric antibody) (antibody, V domains shown, human IgG1 chimeric antibody of the mouse clone) VH: EVQLVESGGGLVQPGGSLKLSCAASGFTFSNYGLSWVRLTPDKRLEVVATIGSYGGNTYYPDSVKGRFTISRDNAKNTLYLQMSSLKSEDTAIYYCARDIYYGNSEAWFAYWGQGTLVTVSA VL: DIVMTQAAFSNPVTLGTSASISCRSSKSLLHSNGITYLYWYLQKPGQSPQLLIYQMSNLASGVPDRFSSSGSETDFTLRISRVEAEDVGVYYCAQNLELPWTFGGGTKLEIK ; value = 0.00044

Kindly note the recorded koff for 15-C8-B5-G7 (human IgG1 chimeric antibody) (antibody, V domains shown, human IgG1 chimeric antibody of the mouse clone) VH: QVQLQQPGAELVKPGASVKLSCKASDYTFTSHWMHWVKQRPGQGLEWIGMIHPNSGTTHYNENFKNKATLTVDNSSSTAYMQLSSLTSEDSAVYYCAWGSSNSYFYAMAYWGQGTSVTVSS VL: QAVVTQESALTTSPGETVTLTCRSSTGAVTTSNYANWVQEKPAHLFTGLIGGTNNRAPGVPARFSGSLIGDKAALTITGAQTEDEAIYFCALWFSNHLVFGGGTKLTVL , which is 0.000196

Value of measured koff for the entry 20-C5-D7-D3 (human IgG1 chimeric antibody) (antibody, V domains shown, human IgG1 chimeric antibody of the mouse clone) VH: EVQLVESGGDLVKPGGSLKLSCAASGFTFRSYGMSWVRQTPDKRLEWVATISGGGNYTYYPDSVKGRFTISRDNAKNTLYLQMSSLKSEDTAMYYCARHEGLPLDYWGQGTTLTVSS VL: DIQMTQSPASLSASVGETVTITCRASENIYSYLAWYQQKQGKSPQLLVYNAKTLAEGVPSRFSGSGSGTQFSLKINSLQPEDFGNFYCQHHYGTPTWTFGGGTKLEIK : 0.000416
